TARGET OR TEST SYSTEM: T1, huNectin4-His (human, UniProt Q96NY8 32-349)
T1 construct: Immobilized on the SPR chip; also called humanNectin4; human Nectin4; not shown: His tag
T1 sequence (looked up): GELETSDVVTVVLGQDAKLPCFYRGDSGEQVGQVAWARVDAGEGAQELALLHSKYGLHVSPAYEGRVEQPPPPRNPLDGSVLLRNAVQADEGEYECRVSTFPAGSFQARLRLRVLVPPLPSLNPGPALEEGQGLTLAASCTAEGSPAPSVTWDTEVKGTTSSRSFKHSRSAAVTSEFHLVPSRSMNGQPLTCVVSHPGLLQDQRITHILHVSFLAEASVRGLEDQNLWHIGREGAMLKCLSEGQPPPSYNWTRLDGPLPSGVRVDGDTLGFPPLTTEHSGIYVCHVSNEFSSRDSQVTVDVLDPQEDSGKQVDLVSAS
TEST SUMMARY: SPR, huNectin4-His immobilized, pH 7.4
As shown below, each of these binders has a reported koff value.
READOUT NAME: koff (s⁻¹)

{"BINDER": "BAP-143-00-05 (antibody, V domains shown, Used as a conjugate with a linker payload (CAB ADC)) VH: EVQLVESGGGLVQPGGSLRLSCAASGFTFSSYNMNWVRQAPGKGLEWVSYISSSSSTIYYADSVKGRFTISRDNAKNSLSLQMNSLRDEDTAVYYCAEAYYYGMDVWGQGTTVTVSS VL: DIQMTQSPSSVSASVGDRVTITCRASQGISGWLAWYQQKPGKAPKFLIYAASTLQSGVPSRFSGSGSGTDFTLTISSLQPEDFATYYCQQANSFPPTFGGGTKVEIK", "READOUT NUMBER": 0.0062}
{"BINDER": "BAP-143-00-04 (antibody, V domains shown, Used as a conjugate with a linker payload (CAB ADC)) VH: EVQLVESGGGLVQPGGSLRLSCAASGFTFSSYNDNWVRQAPGKGLEWVSYISSSSSTIYYADSVKGRFTISRDNAKNSLSLQMNSLRDEDTAVYYCARAYYYGMDVWGQGTTVTVSS VL: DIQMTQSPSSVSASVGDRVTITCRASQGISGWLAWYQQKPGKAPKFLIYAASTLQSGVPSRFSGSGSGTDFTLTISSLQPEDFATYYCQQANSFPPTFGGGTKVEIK", "READOUT NUMBER": 0.00525}

These measurements were taken from patent US20230235054A1.
